# Assay Procedure: protease stability score; higher = more stable; yeast display proteolysis, trypsin and chymotrypsin;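 note: relative to predicted unfolded state with 0 unfolded-like and 1 meaning tenfold more protease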
Metric Name: protease stability score
Response field accepts a number only; no unit should be typed.

Task: Output protease stability score of `SEEEKHMHKMHELRNKRTKTGDEHWFEKLADPHYRVEIGDKELIGWEYLVRVRREFGIDHLETVHIDSTEIQGEKVIEHVTIHGEFDGVRNDLKVELIVIKFNGRWVMHSTKVK`
Result: 0.761

Task: Output protease stability score of `DDEERIWRELLEIWIKLMETGDEDTTRKNADPHAKHILVIGDFTLVLHGWDLTVKFLKELSERMGINHIHVHRVEAINGQVHIDSRLRVGDKDVHTHIRIKIVDGVLKETNLHIK`
Result: 1.62

Task: Output protease stability score of `DEDEELALKMLEQWLRDLLTGDEETMVDLLDPNARLEIGDKENHGRDEVRKFWEELKKRFKNVRMEIEVHEIRVIGNKVHSINTLIIIIGDKRIKHHIHVHVVIFNGRVHSVHISIH`
Result: 1.35

The reported numbers originate from the NTF2 design screens of Basanta et al. (2020).
